# experimental protocol: Estimated solubility of lenalidomide in solvents at ambient temperature (aliquot addition, visual inspection)
# Format: physicochemical
# measurement parameters: organic solvent or mixture, thermodynamic from solid, acetone

>  <compound>
Nc1cccc2c1CN(C1CCC(=O)NC1=O)C2=O (stereo not shown) [Lenalidomide]

>  <solubility [µg/mL]>
2200

$$$$
